Data provenance is PubChem BioAssay (NCI).

Tested on: MALME-3M melanoma
assay-notes: NCI-60 one-dose screen, 48 h
assay-context: 10 µM unless noted
Compounds without any hit were thinned out: in the full panel of roughly 83,000, 20% have a hit. The source made the active and inactive calls. Rule for the calls: active = growth percent below 10; inactive = the rest.
Log the outcome using a class from active, inactive

{"molecule": "COc1ccc(S(=O)(=O)N(C)c2oc(-c3ccc(Cl)cc3)nc2C#N)cc1", "class-name": "inactive"}
{"molecule": "COc1cc(-c2c(-c3ccccc3)c[nH]c2C(=O)NCCCO)c(OC)c2c1OCO2", "class-name": "inactive"}
{"molecule": "C=CCn1c(SCC(=O)Nc2ccc(C(=O)/C=C/c3ccc(Cl)cc3)cc2)nnc1-c1ccc(Cl)c(Cl)c1", "class-name": "inactive"}
{"molecule": "CCOC(=O)c1c(Nc2nc3ccccc3s2)sc2c1CCC(=O)C2", "class-name": "inactive"}

**Q:** Please indicate how the test categorized C#C[C@]1(O)CC[C@H]2[C@@H]3CC=C4c5sc(-c6ccccc6)nc5CC[C@]4(C)[C@H]3CC[C@@]21C .
**A:** inactive

**Q:** Try this molecule next: Cc1[nH]c(C(=O)Nc2ccc(C(N)=O)cc2OC(C)C)c(Cl)c1Cl
**A:** inactive

**Q:** Now give it for CN1CCN(CCCNC(=O)c2c3c(n4ccccc24)C(=O)c2ncccc2C3=O)CC1 too.
**A:** active

**Q:** Item: COc1cccc2cc(N(C)c3nc(C)nc4c3CCC4)ccc12
**A:** inactive

**Q:** Another molecule to check: CC1(C)CC(=O)C2=C(C1)OC(C(=O)c1ccccc1)C2c1cccc(Oc2ccccc2)c1 (stereo not given)
**A:** inactive

**Q:** Try COc1ccccc1NC(=O)n1c(=O)cc(C)c2ccc(O)cc21 next.
**A:** inactive

**Q:** Param item: CC(C)=CCC[C@](C)(O)C1CC[C@]2(C)[C@@H]1CC[C@@H]1[C@@]3(C)CC/C(=N\OCCC#N)C(C)(C)[C@@H]3CC[C@]12C (stereo not given in full)
**A:** inactive

**Q:** And what about the molecule Nc1ncc(-c2ccc3ncnc(N4CCc5cc(F)c(Cl)cc54)c3c2)cn1 ?
**A:** inactive

**Q:** Query Cn1cc(-c2csc(-c3cn(CCO)c4ccc(F)cc34)n2)c2cccnc21 next
**A:** inactive

**Q:** What would you report for CN(C)CCOc1ccc(/C(=C(/CCCCCCCCCC[P+](c2ccccc2)(c2ccccc2)c2ccccc2)c2ccccc2)c2ccccc2)cc1 ?
**A:** active

**Q:** Repeat for the following molecule: CS(=O)(=O)Nc1cc(-c2ccc3ncnc(Nc4cccc(Cl)c4)c3c2)cnc1Cl
**A:** active
